Test system: PSMA-expressing LNCAP cancer xenografts
Test: Biodistribution of ^68Ga-labeled PSMA-targeting tracers
Assay type: in vivo, mice
Details: 1 h post-injection
readout.label: Tissue (% ID/g): Fat
Numbers only, in % ID/g.

# compound, readout.label, uom, observed.result
rows = [
    ("CCCCCC[C@H](NC(=O)[C@H]1CC[C@H](CNC(=O)CN2CCN(CC(=O)[O-])CCN(CC(=O)[O-])CCN(CC(=O)[O-])CC2)CC1)C(=O)NCCCC[C@H](NC(=O)N[C@@H](CCC(=O)O)C(=O)O)C(=O)O.[68Ga+3] [^68Ga-HTK03026]", "Tissue (% ID/g): Fat", "% ID/g", 0.45),
    ("O=C([O-])CN1CCN(CC(=O)[O-])CCN(CC(=O)NC[C@H]2CC[C@H](C(=O)N[C@@H](Cc3ccc4cc5ccccc5cc4c3)C(=O)NCCCC[C@H](NC(=O)N[C@@H](CCC(=O)O)C(=O)O)C(=O)O)CC2)CCN(CC(=O)[O-])CC1.[68Ga+3] [^68Ga-HTK03027]", "Tissue (% ID/g): Fat", "% ID/g", 1.03),
    ("O=C([O-])CN1CCN(CC(=O)[O-])CCN(CC(=O)NC[C@H]2CC[C@H](C(=O)N[C@@H](Cc3ccc4ccc5cccc6ccc3c4c56)C(=O)NCCCC[C@H](NC(=O)N[C@@H](CCC(=O)O)C(=O)O)C(=O)O)CC2)CCN(CC(=O)[O-])CC1.[68Ga+3] [^68Ga-HTK03029]", "Tissue (% ID/g): Fat", "% ID/g", 1.57),
]

Field request: Tissue (% ID/g): Fat | item: O=C([O-])CN1CCN(CC(=O)[O-])CCN(CC(=O)NC[C@H]2CC[C@H](C(=O)N[C@@H](Cc3c4ccccc4cc4ccccc34)C(=O)NCCCC[C@H](NC(=O)N[C@@H](CCC(=O)O)C(=O)O)C(=O)O)CC2)CCN(CC(=O)[O-])CC1.[68Ga+3] [^68Ga-HTK03041] 2.06

###

Exercise: state measured Tissue (% ID/g): Brain for each of the molecules provided.
Tested on: PSMA-expressing LNCAP cancer xenografts
Assay: Biodistribution of ^68Ga-labeled PSMA-targeting tracers
Assay type: in vivo, mice
Details: 1 h post-injection
One number for each entry, in % ID/g.

Known results for molecules:
# molecule, readout.label, uom, observed.result
rows = [
    ("O=C([O-])CN1CCN(CC(=O)[O-])CCN(CC(=O)NC[C@H]2CC[C@H](C(=O)N[C@@H](Cc3c4ccccc4cc4ccccc34)C(=O)NCCCC[C@H](NC(=O)N[C@@H](CCC(=O)O)C(=O)O)C(=O)O)CC2)CCN(CC(=O)[O-])CC1.[68Ga+3] [^68Ga-HTK03041]", "Tissue (% ID/g): Brain", "% ID/g", 0.10),
    ("CCCCCC[C@H](NC(=O)[C@H]1CC[C@H](CNC(=O)CN2CCN(CC(=O)[O-])CCN(CC(=O)[O-])CCN(CC(=O)[O-])CC2)CC1)C(=O)NCCCC[C@H](NC(=O)N[C@@H](CCC(=O)O)C(=O)O)C(=O)O.[68Ga+3] [^68Ga-HTK03026]", "Tissue (% ID/g): Brain", "% ID/g", 0.06),
    ("O=C([O-])CN1CCN(CC(=O)[O-])CCN(CC(=O)NC[C@H]2CC[C@H](C(=O)N[C@@H](Cc3ccc4ccc5cccc6ccc3c4c56)C(=O)NCCCC[C@H](NC(=O)N[C@@H](CCC(=O)O)C(=O)O)C(=O)O)CC2)CCN(CC(=O)[O-])CC1.[68Ga+3] [^68Ga-HTK03029]", "Tissue (% ID/g): Brain", "% ID/g", 0.09),
]

# next molecule below
// lookup Tissue (% ID/g): Brain for O=C([O-])CN1CCN(CC(=O)[O-])CCN(CC(=O)NC[C@H]2CC[C@H](C(=O)N[C@@H](Cc3ccc4cc5ccccc5cc4c3)C(=O)NCCCC[C@H](NC(=O)N[C@@H](CCC(=O)O)C(=O)O)C(=O)O)CC2)CCN(CC(=O)[O-])CC1.[68Ga+3] [^68Ga-HTK03027] 0.06

###

Test system: PSMA-expressing LNCAP cancer xenografts
Assay: Biodistribution of ^68Ga-labeled PSMA-targeting tracers
Assay type: in vivo, mice
Conditions: 1 h post-injection
readout.label: Tissue (% ID/g): Thyroid
Numbers only, in % ID/g.

I need Tissue (% ID/g): Thyroid for every entry listed below, if you could help.
1. O=C([O-])CN1CCN(CC(=O)[O-])CCN(CC(=O)NC[C@H]2CC[C@H](C(=O)N[C@@H](Cc3ccc4cc5ccccc5cc4c3)C(=O)NCCCC[C@H](NC(=O)N[C@@H](CCC(=O)O)C(=O)O)C(=O)O)CC2)CCN(CC(=O)[O-])CC1.[68Ga+3] [^68Ga-HTK03027]
2. O=C([O-])CN1CCN(CC(=O)[O-])CCN(CC(=O)NC[C@H]2CC[C@H](C(=O)N[C@@H](Cc3ccc4ccc5cccc6ccc3c4c56)C(=O)NCCCC[C@H](NC(=O)N[C@@H](CCC(=O)O)C(=O)O)C(=O)O)CC2)CCN(CC(=O)[O-])CC1.[68Ga+3] [^68Ga-HTK03029]
3. CCCCCC[C@H](NC(=O)[C@H]1CC[C@H](CNC(=O)CN2CCN(CC(=O)[O-])CCN(CC(=O)[O-])CCN(CC(=O)[O-])CC2)CC1)C(=O)NCCCC[C@H](NC(=O)N[C@@H](CCC(=O)O)C(=O)O)C(=O)O.[68Ga+3] [^68Ga-HTK03026]

1: 0.76; 2: 1.57; 3: 0.35

Please state recorded Tissue (% ID/g): Thyroid (tested on PSMA-expressing LNCAP cancer xenografts) of O=C([O-])CN1CCN(CC(=O)[O-])CCN(CC(=O)NC[C@H]2CC[C@H](C(=O)N[C@@H](Cc3c4ccccc4cc4ccccc34)C(=O)NCCCC[C@H](NC(=O)N[C@@H](CCC(=O)O)C(=O)O)C(=O)O)CC2)CCN(CC(=O)[O-])CC1.[68Ga+3] [^68Ga-HTK03041] 2.48

###

Test system: PSMA-expressing LNCAP cancer xenografts
Assay: Biodistribution of ^68Ga-labeled PSMA-targeting tracers
Format: in vivo, mice
Conditions: 1 h post-injection
Assignment: determine reported tumor-to-background contrast ratio Tumor: Blood for the given compounds.
Numbers only.

Please state tumor-to-background contrast ratio Tumor: Blood for every compound in the list that follows.
1. CCCCCC[C@H](NC(=O)[C@H]1CC[C@H](CNC(=O)CN2CCN(CC(=O)[O-])CCN(CC(=O)[O-])CCN(CC(=O)[O-])CC2)CC1)C(=O)NCCCC[C@H](NC(=O)N[C@@H](CCC(=O)O)C(=O)O)C(=O)O.[68Ga+3] [^68Ga-HTK03026]
2. O=C([O-])CN1CCN(CC(=O)[O-])CCN(CC(=O)NC[C@H]2CC[C@H](C(=O)N[C@@H](Cc3c4ccccc4cc4ccccc34)C(=O)NCCCC[C@H](NC(=O)N[C@@H](CCC(=O)O)C(=O)O)C(=O)O)CC2)CCN(CC(=O)[O-])CC1.[68Ga+3] [^68Ga-HTK03041]
3. O=C([O-])CN1CCN(CC(=O)[O-])CCN(CC(=O)NC[C@H]2CC[C@H](C(=O)N[C@@H](Cc3ccc4cc5ccccc5cc4c3)C(=O)NCCCC[C@H](NC(=O)N[C@@H](CCC(=O)O)C(=O)O)C(=O)O)CC2)CCN(CC(=O)[O-])CC1.[68Ga+3] [^68Ga-HTK03027]
4. O=C([O-])CN1CCN(CC(=O)[O-])CCN(CC(=O)NC[C@H]2CC[C@H](C(=O)N[C@@H](Cc3ccc4ccc5cccc6ccc3c4c56)C(=O)NCCCC[C@H](NC(=O)N[C@@H](CCC(=O)O)C(=O)O)C(=O)O)CC2)CCN(CC(=O)[O-])CC1.[68Ga+3] [^68Ga-HTK03029]

1. 18.6
2. 17.3
3. 8.57
4. 3.39

###

System: PSMA-expressing LNCAP cancer xenografts
Assay: Biodistribution of ^68Ga-labeled PSMA-targeting tracers
Type: in vivo, mice
Conditions: 1 h post-injection
What Tissue (% ID/g): Stomach was measured for each of the following?
Numbers only, in % ID/g.

Some entries whose results are on file:
# compound, readout.label, observed.result
records = [
    ("O=C([O-])CN1CCN(CC(=O)[O-])CCN(CC(=O)NC[C@H]2CC[C@H](C(=O)N[C@@H](Cc3ccc4cc5ccccc5cc4c3)C(=O)NCCCC[C@H](NC(=O)N[C@@H](CCC(=O)O)C(=O)O)C(=O)O)CC2)CCN(CC(=O)[O-])CC1.[68Ga+3] [^68Ga-HTK03027]", "Tissue (% ID/g): Stomach", 0.17),
    ("O=C([O-])CN1CCN(CC(=O)[O-])CCN(CC(=O)NC[C@H]2CC[C@H](C(=O)N[C@@H](Cc3c4ccccc4cc4ccccc34)C(=O)NCCCC[C@H](NC(=O)N[C@@H](CCC(=O)O)C(=O)O)C(=O)O)CC2)CCN(CC(=O)[O-])CC1.[68Ga+3] [^68Ga-HTK03041]", "Tissue (% ID/g): Stomach", 0.41),
    ("CCCCCC[C@H](NC(=O)[C@H]1CC[C@H](CNC(=O)CN2CCN(CC(=O)[O-])CCN(CC(=O)[O-])CCN(CC(=O)[O-])CC2)CC1)C(=O)NCCCC[C@H](NC(=O)N[C@@H](CCC(=O)O)C(=O)O)C(=O)O.[68Ga+3] [^68Ga-HTK03026]", "Tissue (% ID/g): Stomach", 0.10),
]

// next item, Tissue (% ID/g): Stomach requested
Hi! What's the reported Tissue (% ID/g): Stomach for O=C([O-])CN1CCN(CC(=O)[O-])CCN(CC(=O)NC[C@H]2CC[C@H](C(=O)N[C@@H](Cc3ccc4ccc5cccc6ccc3c4c56)C(=O)NCCCC[C@H](NC(=O)N[C@@H](CCC(=O)O)C(=O)O)C(=O)O)CC2)CCN(CC(=O)[O-])CC1.[68Ga+3] [^68Ga-HTK03029] on PSMA-expressing LNCAP cancer xenografts? 0.31

Hello, the source for this data is patent US12472272B2, in case you need it.
